Biological target: T1, cyno CD137 on DO11.10-cCD137 cells (cynomolgus, UniProt Q07011 24-255 (human entry))
T1 construct: full-length cyno CD137 over-expressed on DO11.10 cells; also called cell surface-expressed cyno CD137
T1 chain: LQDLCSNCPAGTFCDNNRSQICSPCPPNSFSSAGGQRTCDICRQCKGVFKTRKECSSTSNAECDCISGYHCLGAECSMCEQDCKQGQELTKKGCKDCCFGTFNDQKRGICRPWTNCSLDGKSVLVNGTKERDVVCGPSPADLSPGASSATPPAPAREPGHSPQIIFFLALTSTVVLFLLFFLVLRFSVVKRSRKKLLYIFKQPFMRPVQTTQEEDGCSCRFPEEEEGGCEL
Assay: flow cytometry on DO11.10-cCD137 cells, GMFI vs concentration
pEC50: −log10 of the molar value.

binder	pEC50
G1AA/FS30-15 (antibody, human IgG1, kappa, L234A L235A, V domains shown, human IgG1 with LALA mutation in CH2; also called FS30-15 mAb) VH: EVQLLESGGGLVQPGGSLRLSCAASGFTFSGSGMSWVRQAPGKGLEWVSIIYSTNGDTDYADSVKGRFTISRDNSKNTLYLQMNSLRAEDTAVYYCARDFYDIANYYAFDYWGQGTLVTVSS VL: EIVLTQSPGTLSLSPGERATLSCRASQSVSSSYLAWYQQKPGQAPRLLIYGASSRATGIPDRFSGSGSGTDFTLTISRLEPEDFAVYYCQQAYYDPITFGQGTKVEIKR	9.51

All values here come from patent US12534534.
